- target or system: T1, P3028 (VFDEFKPLVEEPQNLIK, SEQ ID NO: 185), His-tagged (human)
- T1 construct: Synthetic fragment of human serum albumin (positions 397-413); used in solution as His-tagged peptide PGE73; also called PGE73; not shown: His-tag
- T1 peptide: VFDEFKPLVEEPQNLIK
- assay remarks: PEPSCAN ELISA; peptide on chip, His-P3028 added;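 note: peroxidase color development with ABTS and H2O2 substrate, OD405 imaged by CCD camera with image processing and taken as raw values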
// reported RAMPO Score per item
Returns: string containing the numeric result and its unit.

Below are worked cases with known answers.
| binder | measured endpoint | result |
| --- | --- | --- |
| KKLDTFNVKLSLFTER [KKLDTFNVKLSLFTER (SEQ ID NO: 443)] | RAMPO Score | 348 rampo units |
| KGLDTFFVKLSLFTER [KGLDTFFVKLSLFTER (SEQ ID NO: 412)] | RAMPO Score | 405 rampo units |
| KKLDTFFVTLSLFTER [KKLDTFFVTLSLFTER (SEQ ID NO: 445)] | RAMPO Score | 347 rampo units |
| KKLDTCFVKLSLFTER [KKLDTCFVKLSLFTER (SEQ ID NO: 462)] | RAMPO Score | 335 rampo units |

Consider KKLDTFFVKLSLHTER [KKLDTFFVKLSLHTER (SEQ ID NO: 364)] . Its measured RAMPO Score is 1050 rampo units

Consider KKLDTFFVKLSLFFER [KKLDTFFVKLSLFFER (SEQ ID NO: 376)] . Its measured RAMPO Score is 348 rampo units

Consider KKLDTFFVKLSFFTER [KKLDTFFVKLSFFTER (SEQ ID NO: 422)] . Its measured RAMPO Score is 389 rampo units
